Test system: NCI-H226 lung
Test: NCI tumour cell line growth inhibition, 48 h
quantity_measured: GI50

C=C1C(=O)OC(CCCCCCCC)C1C(=O)O (stereo not given)
19.8 µM
CC(C)(O)Cn1c(=O)c(Oc2ccc(F)cc2F)cc2cnc(NC3CCOCC3)nc21
> 25 µM
COc1ccc(NC(=O)c2ccc(NC3=C(Cl)C(=O)N(Cc4ccccc4)C3=O)cc2)cc1
14.5 µM
Cc1c(CNc2ccc(Cl)c(C(=O)NC(CC(=O)O)C(=O)O)c2)ccc2nc(N)nc(N)c12 (stereo not given)
> 1000 µM

Consider now this further compound.
Input line: // query GI50 value for entry COc1ccc([C@H]2c3cc(OC)c(OC)cc3C=C(C=O)C2CO)cc1OC (stereo not given in full)
Output line: > 100 µM

---

System: PC-3 prostate
Assay: NCI tumour cell line growth inhibition, 48 h
Listed here: items and their measured TGI.

Reference set (10 entries):
CCOC(=O)c1c(SC(=O)c2cc(OC)c(OC)c(OC)c2)n(-c2ccccc2)c(=S)n(-c2ccccc2)c1=O
> 100 µM
O=C1Cc2c(-c3ccc(Cl)cc3)cc(-c3ccccc3)nc2-c2ccccc2N1
> 100 µM
Cc1c(CNc2ccc(Cl)c(C(=O)NC(CC(=O)O)C(=O)O)c2)ccc2nc(N)nc(N)c12 (stereo not drawn)
> 1000 µM
Cc1oc2nc1C(=O)NCc1nc(cs1)C(=O)N[C@H](C(C)C)c1nc(cs1)C(=O)N[C@H]2C
> 100 µM
COc1ccc(C(=O)CC2(O)C(=O)Nc3c(Cl)ccc(Cl)c32)cc1 (stereo not drawn)
> 100 µM
C=C1C(=O)OC(CCCCCCCC)C1C(=O)O (stereo not drawn)
40 µM
CCCCC/C=C1/CC(CO)(COC(=O)CC(C(C)C)C(C)C)OC1=O (stereo not drawn)
24.6 µM
COc1cc(Oc2nc3ccccc3nc2C(=O)O)cc(OC)c1OC
> 100 µM
COc1cc(C2c3cc4c(cc3C(O)C3CCC(=O)N23)OCO4)cc(OC)c1OC (stereo not drawn)
> 100 µM
CC(C)CC(=O)NC(Nc1ccc(S(=O)(=O)Nc2ncccn2)cc1)(C(F)(F)F)C(F)(F)F
> 100 µM

Input line: // query TGI value for entry COc1ccc(C2SC(N)=Nc3c2c(C)nn3C(=O)c2ccncc2)cc1 (stereo not drawn)
Output line: > 100 µM

Input line: // query TGI value for entry O=C(NCC1Nc2ccncc2S(=O)(=O)N1)c1ccc(Br)cc1 (stereo not drawn)
Output line: 51.4 µM

Input line: // query TGI value for entry CC1(C)C2CCC1(CS(=O)(=O)Nc1ccccc1)C(=O)C2 (stereo not drawn)
Output line: > 100 µM

Input line: // query TGI value for entry CCSSCS(C)(=O)=O
Output line: > 100 µM

Input line: // query TGI value for entry CC(=O)N1N=C(c2c(O)ccc3ccccc23)CC1C(=O)c1ccco1 (stereo not drawn)
Output line: > 100 µM

Input line: // query TGI value for entry CN(Cc1c2ccccc2cc2ccccc12)S(=O)(=O)c1ccc(-c2c3nc(c(-c4ccc(S(=O)(=O)N(C)Cc5c6ccccc6cc6ccccc56)cc4)c4ccc([nH]4)c(-c4ccc(S(=O)(=O)N(C)Cc5c6ccccc6cc6ccccc56)cc4)c4nc(c(-c5ccc(S(=O)(=O)N(C)Cc6c7ccccc7cc7ccccc67)cc5)c5ccc2[nH]5)C=C4)C=C3)cc1
Output line: > 100 µM

Input line: // query TGI value for entry c1ccc2c(c1)c1c(n2CCOCCN2CCCCC2)CCCC1
Output line: 22.2 µM

Input line: // query TGI value for entry O=P(O)(O)OC1C(OP(=O)(O)O)C(OP(=O)(O)O)C(OP(=O)(O)O)C(OP(=O)(O)O)C1OP(=O)(O)O (stereo not drawn)
Output line: > 2000 µM

Input line: // query TGI value for entry O=[N+]([O-])C(/C(Cl)=C(/Cl)N1CCOCC1)=C1\NCCO1
Output line: > 100 µM

Input line: // query TGI value for entry Oc1ccc2c(c1)-c1c(c3cc(O)ccc3n1CCN1CCOCC1)CC2
Output line: 54.4 µM

Input line: // query TGI value for entry C=C1C(=O)O[C@@H]2[C@@H]3O[C@@](C)(CC/C=C(\C)CCC[C@@H]2C)[C@H](O)C[C@@H]13
Output line: 18.3 µM

Input line: // query TGI value for entry Cc1nc2c(cc1C(=O)NN)c(=O)n(C)c(=O)n2C
Output line: > 100 µM

Input line: // query TGI value for entry CCN1CCN(C(=O)[C@]23CC[C@@H](C)[C@H](C)[C@@H]2C2=CC[C@@H]4[C@@]5(C)C/C(=C/c6cccnc6)C(=O)C(C)(C)[C@@H]5CC[C@@]4(C)[C@]2(C)CC3)CC1
Output line: 3.85 µM

Input line: // query TGI value for entry CN(C)CCCn1c(Cc2ccccc2)nc2cc(C(F)(F)F)ccc21
Output line: > 100 µM

Input line: // query TGI value for entry COc1ccccc1/C=C1\COc2ccc(O)c(O)c2C1=O
Output line: 11.3 µM

---

Test system: HOP-62 NSCLC
Assay: NCI tumour cell line growth inhibition, 48 h
quantity_measured: TGI

C#Cc1cccc(NC(=O)Nc2ccccc2NC(=O)CCl)c1
> 82.5 µM
Cc1cc2c(cc1-c1cc3c(cc1C)C(C(C)C)=C(O)C(=O)/C3=C\Nc1nc(-c3ccccc3)cs1)/C(=C/Nc1nc(-c3ccccc3)cs1)C(=O)C(O)=C2C(C)C
31.7 µM
N#Cc1c(N)nn(C(=O)c2ccc(NC(=O)c3ccccn3)cc2)c1-c1ccc(Cl)cc1
8.37 µM
C=CCCc1cc(OC)ccc1CN(C)C(C)(C)CO
> 100 µM

Input line: // query TGI value for entry FC(F)(F)c1ccc2nc(-c3nc(-c4ccccc4)n4ccccc34)[nH]c2c1
Output line: 9.26 µM

Input line: // query TGI value for entry CC(=O)N1N=C(c2c(O)ccc3ccccc23)CC1C(=O)c1ccco1 (stereo not given)
Output line: > 100 µM

---

Listed here: items and their measured TGI.
Test system: TK-10 renal
Assay: NCI tumour cell line growth inhibition, 48 h

Reference set (6 entries):
COc1c(O)c2ccccc2c2cc(O)ccc12
61.2 µM
C[N+](C)(C)CC(=O)N/N=C(/C=C/c1ccccc1)CC1OC(=O)c2ccccc21 (stereo unspecified)
> 100 µM
c1ccc2c(c1)c1c(n2CCOCCN2CCCCC2)CCCC1
27.3 µM
Cc1ccc(CCC(=O)Nc2ncc(Cc3cc(Cl)ccc3Cl)s2)o1
> 66.5 µM
CCOC(=O)c1c(SC(=O)c2cc(OC)c(OC)c(OC)c2)n(-c2ccccc2)c(=S)n(-c2ccccc2)c1=O
> 100 µM
Cc1cc(S(=O)(=O)Nc2nc3ccsc3c(=O)n2N)c(S)cc1Cl
> 100 µM

Input line: // query TGI value for entry Brc1ccc2c(-c3nc(-c4c[nH]c5ccccc45)cs3)c[nH]c2c1
Output line: 45.8 µM

Input line: // query TGI value for entry COc1ccc(NC(=O)CC/C(CC(=O)c2ccco2)=N/Nc2ccc([N+](=O)[O-])cc2[N+](=O)[O-])cc1
Output line: > 100 µM

Input line: // query TGI value for entry COc1ccc(C(=O)CC2(O)C(=O)Nc3c(Cl)ccc(Cl)c32)cc1 (stereo unspecified)
Output line: > 100 µM

Input line: // query TGI value for entry O=C(Nc1ccccc1)c1cc2c(cc1Cl)Sc1nccn1S2(=O)=O
Output line: > 100 µM

Input line: // query TGI value for entry CCc1nc(N)nc(N)c1-c1ccc(Cl)cc1
Output line: > 100 µM

Input line: // query TGI value for entry CCc1nc2ccccc2c(=O)n1/N=C(\N=Nc1ccc(Cl)cc1)c1ccc(N(C)C)cc1
Output line: > 100 µM

Input line: // query TGI value for entry N/C(=N\N=C\c1ccc2c(c1)OCO2)NO
Output line: > 100 µM

Input line: // query TGI value for entry COc1cc[c]([Hg][Cl])cc1
Output line: 31.4 µM

Input line: // query TGI value for entry COc1ccc(C(=O)c2cc3c(N)c(C(=O)Nc4cccc(Cl)c4)sc3nc2C)cc1
Output line: > 33.3 µM

Input line: // query TGI value for entry Nn1c(Cc2ccc(Cl)cc2)n[nH]c1=O
Output line: > 100 µM

---

Listed here: items and their measured GI50.
Tested on: OVCAR-3 ovarian
Test: NCI tumour cell line growth inhibition, 48 h

CCc1nc(N)nc(N)c1-c1ccc(Cl)cc1
36.3 µM

Input line: Give GI50 (OVCAR-3 ovarian) of the following compound: O=C(Nc1ccc(Cl)cc1)NS(=O)(=O)c1ccc2c(c1)CCC2
Output line: 5.61 µg/mL

Input line: Give GI50 (OVCAR-3 ovarian) of the following compound: Cc1ncc(C(=O)Nc2ccc(CN3CCN(C)CC3)c(C(F)(F)F)c2)cc1C#Cc1c(N)ncc2ccc(C#N)cc12
Output line: 1.57 µM

Input line: Give GI50 (OVCAR-3 ovarian) of the following compound: CCc1cc(C(N)=O)ccc1-n1nc(C(C)C)c2c(-n3cnc(-c4cnn(C)c4)c3)ccnc21
Output line: 2.37 µM

Input line: Give GI50 (OVCAR-3 ovarian) of the following compound: C=C1C(=O)O[C@@H]2[C@@H]3O[C@@](C)(CC/C=C(\C)CCC[C@@H]2C)[C@H](O)C[C@@H]13
Output line: 1.7 µM

Input line: Give GI50 (OVCAR-3 ovarian) of the following compound: COc1ccc(/C=C2/SC(=Nc3c(C)nn(-c4ccccc4)c3N)NC2=O)cc1
Output line: 2.6 µM
